- Measurement Notes: Human liver microsomal stability
- Type: in vitro ADME
- Condition Set: liver microsomes, human liver microsomes t1/2, assayed at 0-60 min

{"Compound": "CC1=C(c2nc(C)no2)N2C(=O)[C@@H](NC(=O)COc3ccccc3)[C@H]2SC1 [compound 5]", "half-life": "~1.33 h"}

====

- Measurement Notes: Stability in cell-free PBS and nonreplicating medium
- Format: physicochemical
- Condition Set: cell-free nonreplicating medium pH 5.0 with 0.5 mM NaNO2, 37 °C, day 6
Recorded Endpoint: d6: % remaining NR medium + 0.5 mM NaNO2

{"Molecule": "CCCOC(=O)C1=C(C)CS[C@@H]2[C@H](NC(=O)COc3ccccc3)C(=O)N12 [compound 1]", "Result": "stable"}
{"Molecule": "CC1=C(c2nc(C)no2)N2C(=O)[C@@H](NC(=O)COc3ccccc3)[C@H]2SC1 [compound 5]", "Result": "stable"}
{"Molecule": "CCCOC(=O)N[C@@H]1C(=O)N2C(C(=O)OCCC)=C(C)CS[C@H]12 [compound 2]", "Result": "stable"}

Values compiled from paper PMC4947980.
